Taken from patent US20250213558A1.

Target: Human Cav3.1 calcium channel (Homo sapiens, UniProt O43497)
Construct: expressed in transfected cells; host or cells: HEK-293 natClytin/TASK1+Cav3.1 cell line
Sequence (O43497 whole entry): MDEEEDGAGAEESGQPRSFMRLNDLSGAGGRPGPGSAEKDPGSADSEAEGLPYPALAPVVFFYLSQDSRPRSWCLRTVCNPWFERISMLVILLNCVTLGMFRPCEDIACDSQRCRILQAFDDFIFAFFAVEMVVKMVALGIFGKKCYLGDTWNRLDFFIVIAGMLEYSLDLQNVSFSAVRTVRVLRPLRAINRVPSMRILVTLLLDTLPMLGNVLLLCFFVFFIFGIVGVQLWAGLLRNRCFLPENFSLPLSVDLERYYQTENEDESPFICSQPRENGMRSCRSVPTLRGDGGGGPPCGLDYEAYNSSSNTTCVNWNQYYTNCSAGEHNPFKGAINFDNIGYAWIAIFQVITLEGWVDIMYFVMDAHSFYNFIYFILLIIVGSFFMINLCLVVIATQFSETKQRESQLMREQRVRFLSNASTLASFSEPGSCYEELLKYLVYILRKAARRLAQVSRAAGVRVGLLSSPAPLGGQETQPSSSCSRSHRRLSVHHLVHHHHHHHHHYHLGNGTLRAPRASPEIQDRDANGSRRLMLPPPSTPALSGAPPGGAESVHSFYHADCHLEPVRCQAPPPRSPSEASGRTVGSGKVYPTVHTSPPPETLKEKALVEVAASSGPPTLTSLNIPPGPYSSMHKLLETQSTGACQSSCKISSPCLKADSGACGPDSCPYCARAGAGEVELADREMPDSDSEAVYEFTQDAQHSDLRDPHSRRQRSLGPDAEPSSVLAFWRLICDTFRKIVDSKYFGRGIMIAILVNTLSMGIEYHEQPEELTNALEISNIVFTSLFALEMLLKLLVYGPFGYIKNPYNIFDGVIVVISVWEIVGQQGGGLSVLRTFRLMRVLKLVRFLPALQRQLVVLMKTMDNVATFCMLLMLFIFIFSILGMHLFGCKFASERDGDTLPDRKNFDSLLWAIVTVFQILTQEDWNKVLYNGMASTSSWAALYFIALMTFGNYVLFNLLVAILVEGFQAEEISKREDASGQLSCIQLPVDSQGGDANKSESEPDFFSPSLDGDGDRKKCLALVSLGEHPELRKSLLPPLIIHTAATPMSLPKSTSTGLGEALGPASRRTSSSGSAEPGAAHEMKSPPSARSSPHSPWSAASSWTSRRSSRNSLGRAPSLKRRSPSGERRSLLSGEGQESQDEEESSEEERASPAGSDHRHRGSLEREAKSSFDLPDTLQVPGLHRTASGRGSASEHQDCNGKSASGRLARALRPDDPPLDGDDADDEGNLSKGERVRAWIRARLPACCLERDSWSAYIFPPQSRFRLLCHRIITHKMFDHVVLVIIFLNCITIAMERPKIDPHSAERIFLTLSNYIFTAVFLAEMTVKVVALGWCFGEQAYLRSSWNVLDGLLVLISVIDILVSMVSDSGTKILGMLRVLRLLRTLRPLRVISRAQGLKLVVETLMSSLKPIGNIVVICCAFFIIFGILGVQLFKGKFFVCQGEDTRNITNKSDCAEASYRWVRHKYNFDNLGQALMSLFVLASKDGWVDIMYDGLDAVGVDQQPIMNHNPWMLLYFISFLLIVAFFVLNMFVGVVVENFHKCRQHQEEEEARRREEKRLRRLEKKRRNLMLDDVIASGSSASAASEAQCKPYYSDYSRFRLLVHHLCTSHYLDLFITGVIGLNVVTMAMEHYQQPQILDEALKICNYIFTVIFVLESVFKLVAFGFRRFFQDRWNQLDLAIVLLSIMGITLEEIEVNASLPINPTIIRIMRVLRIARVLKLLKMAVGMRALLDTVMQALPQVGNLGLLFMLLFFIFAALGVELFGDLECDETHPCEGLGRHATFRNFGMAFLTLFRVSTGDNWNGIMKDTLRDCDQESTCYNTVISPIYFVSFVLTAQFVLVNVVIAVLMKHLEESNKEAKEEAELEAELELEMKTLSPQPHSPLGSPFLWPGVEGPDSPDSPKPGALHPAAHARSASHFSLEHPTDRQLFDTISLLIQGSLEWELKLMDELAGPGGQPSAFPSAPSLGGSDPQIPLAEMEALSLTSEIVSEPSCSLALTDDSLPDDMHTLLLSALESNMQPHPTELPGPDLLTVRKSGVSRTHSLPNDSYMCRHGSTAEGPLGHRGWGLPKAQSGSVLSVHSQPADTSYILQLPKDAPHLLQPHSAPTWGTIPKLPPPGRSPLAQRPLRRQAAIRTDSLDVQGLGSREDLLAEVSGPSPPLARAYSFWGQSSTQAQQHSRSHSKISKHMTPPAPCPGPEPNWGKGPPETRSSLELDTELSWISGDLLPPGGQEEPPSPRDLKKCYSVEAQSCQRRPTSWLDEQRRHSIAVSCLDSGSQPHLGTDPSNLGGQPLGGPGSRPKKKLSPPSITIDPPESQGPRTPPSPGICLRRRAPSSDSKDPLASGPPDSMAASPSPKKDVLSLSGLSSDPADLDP
Assay: Human Cav3.1 calcium channel patch clamp assay (SyncroPatch 384PE; single point and IC50, voltage dependent block)
Type: cell-based
Settings: Testing Conc 1.25; HEK-293 natClytin/TASK1+Cav3.1 cell line, patch clamp
The entries below are paired with their reported % Inhibition (Single Point Data).
Answer format: numeric, % implied, no suffix.

Please review the entries below; each comes with its answer.
compound	unit.name	observed.measurement
CC(C(=O)Nc1ccc(F)c(OC(F)F)c1)N1CC2CC(C1)N2CC(=O)NC1(C(F)(F)F)CC1 (stereo not shown)	%	66.406
O=C(CN1C[C@H]2C[C@@H]1CN2CC(=O)NC1(C(F)(F)F)CC1)Nc1ccc(F)c(Cl)c1	%	39.491
O=C(CN1C[C@@H]2C[C@H]1CN2CC(=O)N1CCC(F)(F)CC1)NC12CC3CC(CC(C3)C1)C2	%	70.161

**Q:** // returns reported % Inhibition (Single Point Data) for input Cc1cc(Cl)cc(NC(=O)CN2CC3CC(C2)N3CC(=O)NC2(C(F)(F)F)CC2)c1
**A:** 87.863

**Q:** Same lookup for O=C(CN1C[C@@H]2C[C@H]1CN2CC(=O)NC1(C(F)(F)F)CC1)NC12CC3CC(CC(C3)C1)C2 , please.
**A:** 61.038
